System: PANC-1
Assay: Viability assay (CELLTITER-GLO), 24 hours treatment
Assay type: cell-based, human
Details: Homo sapiens, PANC-1, 24 h, read-out: IC50 ± SEM, PANC-1
pIC50: −log10 of the molar value.
Metric: pIC50

Return pIC50 for the following compound: CCOc1ccccc1-n1c(C(C)N2CCN(C(=O)COc3ccc(Cl)cc3)CC2)nc2ccccc2c1=O (stereo not shown)
< 3.82

---

Test system: AsPC-1
Assay: Viability assay (CELLTITER-GLO), 24 hours treatment
Assay type: cell-based, human
Details: Homo sapiens, ASPC1; 24 hours; mean ± SEM, n ≥ 3; read-out: IC50 ± SEM, AsPC-1
Metric: pIC50
For clarity, pIC50 is expressed as the negative log10 of concentration in mol/L.

Give the reported value of pIC50 for this record: CCOc1ccccc1-n1c(CN2CCN(C(=O)COc3ccc(CNCCCCCCN4C5CCCC4CC(OC(=O)Nc4cc(C)ccc4OC)C5)cc3)CC2)nc2ccccc2c1=O.O=C(O)C(=O)O (stereo not shown) [SW V-49s]
5.49

---

Test system: all human and murine pancreatic cancer cell lines tested
Assay: Viability assay on panel of pancreatic cancer cell lines
Format: cell-based
Settings: Pancreatic cancer cell, 24 h; panel of human and mouse derived pancreatic cancer cell lines
pIC50: −log10 of the molar value.
Metric: pIC50

Provide pIC50 value for the following molecule: CCOc1ccccc1-n1c(C(C)N2CCN(C(=O)COc3ccc(Cl)cc3)CC2)nc2ccccc2c1=O (stereo not shown)
< 3.82

---

System: AsPC-1
Assay: Viability assay (CELLTITER-GLO), 24 hours treatment
Type: cell-based, human
Details: Homo sapiens, ASPC1, 24 h, read-out: IC50 ± SEM, AsPC-1
pIC50: −log10 of the molar value.
Metric: pIC50

Identify pIC50 associated with the compound CCOc1ccccc1-n1c(C(C)N2CCN(C(=O)COc3ccc(Cl)cc3)CC2)nc2ccccc2c1=O (stereo not shown) [Erastin]
< 3.82

---

System: KCKO cells
Experiment: Viability assay (CELLTITER-GLO), 24 hours treatment
Assay type: cell-based, murine
Conditions: 24 hours; mean ± SEM, n ≥ 3; read-out: IC50 ± SEM, KCKO
Metric: pIC50
pIC50 here: minus log base 10 of the concentration, concentration in moles per litre.

Report pIC50 for COc1ccc(C)cc1NC(=O)OC1C[C@H]2CCC[C@@H](C1)N2CCCCCCN (stereo partly shown) [SV119, reference compound]
4.16

---

Tested on: KCKO cells
Experiment: Viability assay (CELLTITER-GLO), 24 hours treatment
Format: cell-based, murine
Settings: Mus musculus, 24 h, read-out: IC50 ± SEM, KCKO
Metric: IC50

Specify reported IC50 for the compound shown: CCOc1ccccc1-n1c(C(C)N2CCN(C(=O)COc3ccc(Cl)cc3)CC2)nc2ccccc2c1=O (stereo not shown)
> 150 µM
